System: SK-OV-3 ovarian
Assay: NCI-60 one-dose screen, 48 h
Details: 10 µM unless noted
Compounds without any hit were thinned out: in the full panel of roughly 83,000, 20% have a hit. The source made the active and inactive calls. The calls were made as follows: active = growth percent below 10; inactive = the rest.
Log the outcome using a class from Yes = active, No = inactive

>>> print(df.to_string())
                                   compound  class_name
0                      CCN(CC)c1ccc(N=O)cc1          No
1  Cc1ccc(S(=O)(=O)Nc2c(Br)cc(Br)cc2C(N)=O)cc1          No
2  COc1ccc(/C=N\NC(=O)CN2CCN(c3cc4c(cc3F)c(=O)c(C(=O)N/N=C/c3ccc(OC)c(OC)c3)cn4C3CC3)CC2)cc1OC          No
3  COc1ccc(-c2nc3sc(-c4cc(OC)c(OC)c(OC)c4)nn3c2/C=C2/C(=O)Nc3ccc(F)cc32)cc1         Yes

Data request: # lookup: test call for COc1ccc(S(=O)(=O)NCCCNc2nccc(-n3ccc4cccnc43)n2)cc1
Data returned: No

Data request: # lookup: test call for COc1ccc(CN2CCc3c(Sc4ccccc4)nc(N)nc3C2=O)c(OC)c1
Data returned: No

Data request: # lookup: test call for CCOC(=O)CC(=O)OC
Data returned: No

Data request: # lookup: test call for Cc1cc(C)n(-c2nnc3n2N=C(c2ccc(-c4ccccc4)cc2)CS3)n1
Data returned: No

Data request: # lookup: test call for COc1ccc(C2C=C(c3ccc(Cl)cc3)N=C3SC=C(C)N32)c(Br)c1 (configuration not stated)
Data returned: No

Data request: # lookup: test call for COc1ccc2[nH]c(=O)c(/C=N/Nc3nc(-c4ccccc4)cs3)c(O)c2c1
Data returned: No

Data request: # lookup: test call for NC(=S)N/N=C(/CCN1CCCC1)CC(C1=C(O)C2=CCCCC2OC1=O)c1ccccc1 (configuration not stated)
Data returned: No

Data request: # lookup: test call for C=C1CCC2C(C)(CO)C(O)CCC2(C)C1CC(NCc1ccccc1)C1=CCOC1=O (configuration not stated)
Data returned: No
